Molecular target: human V1a receptor (Homo sapiens, UniProt P37288)
Construct: expressed in transfected cells; host or cells: CHO K1 (Chinese hamster ovary), also stably transfected with a modified aequorin
Sequence (P37288 whole entry): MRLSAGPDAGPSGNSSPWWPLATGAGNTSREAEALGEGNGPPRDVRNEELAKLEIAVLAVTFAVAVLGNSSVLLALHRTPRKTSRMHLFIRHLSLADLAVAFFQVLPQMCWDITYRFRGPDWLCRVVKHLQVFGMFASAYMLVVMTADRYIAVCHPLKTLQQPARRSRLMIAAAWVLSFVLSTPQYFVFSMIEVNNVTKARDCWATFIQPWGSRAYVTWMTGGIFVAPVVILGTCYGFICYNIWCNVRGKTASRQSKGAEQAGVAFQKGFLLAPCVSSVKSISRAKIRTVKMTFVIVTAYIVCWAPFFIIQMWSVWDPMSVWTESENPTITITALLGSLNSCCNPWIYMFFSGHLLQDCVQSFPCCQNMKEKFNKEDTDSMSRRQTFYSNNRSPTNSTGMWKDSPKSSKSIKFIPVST
Experiment: Cellular in vitro assay for vasopressin receptor activity, V1a receptor cell line (aequorin luminescence)
Type: cell-based
Conditions: selectivity ratio of the IC50 values hV2/hV1a
Where a name gives a salt, the structure may show the parent alone.
valueType: ratio IC50 hV2/hV1a

Use these answered entries as a reference point.
>  <molecule>
O=CN1CCC(NC(=O)c2nc(Cn3nc(-c4ccc(Cl)cc4)n(C[C@H](O)C(F)(F)F)c3=O)nn2-c2cccnc2Cl)C1 (mixture of isomers)

>  <ratio IC50 hV2/hV1a>
2.9

$$$$
>  <molecule>
O=C(NCC(F)(F)F)c1nc(Cn2nc(-c3ccc(Cl)cc3)n(C[C@H](O)C(F)(F)F)c2=O)nn1-c1ncccc1Cl

>  <ratio IC50 hV2/hV1a>
40.2

$$$$
>  <molecule>
CC(C)(C)NC(=O)c1nc(Cn2nc(-c3ccc(Cl)cc3)n(C[C@H](O)C(F)(F)F)c2=O)nn1-c1ccccc1Cl

>  <ratio IC50 hV2/hV1a>
8.8

$$$$
>  <molecule>
O=C(NCC(F)(F)F)c1nc(Cn2nc(-c3ccc(Cl)cc3)n(C[C@H](O)C(F)(F)F)c2=O)nn1-c1cnccc1Cl

>  <ratio IC50 hV2/hV1a>
45.7

$$$$

A. CNC(=O)c1nc(Cn2nc(-c3ccc(Cl)cc3)n(C[C@H](O)C(F)(F)F)c2=O)nn1-c1ccccc1Cl
B. O=C(c1nc(Cn2nc(-c3ccc(Cl)cc3)n(C[C@H](O)C(F)(F)F)c2=O)nn1-c1cccc(Cl)c1)N1CCOCC1
C. CC(C)(N)CNC(=O)c1nc(Cn2nc(-c3ccc(Cl)cc3)n(C[C@H](O)C(F)(F)F)c2=O)nn1-c1cnccc1Cl
D. O=C(NCC(F)(F)F)c1nc(Cn2nc(-c3ccc(Cl)cc3)n(C[C@H](O)C(F)(F)F)c2=O)nn1-c1ncccc1Br
E. CC1(C)CN(C(=O)c2nc(Cn3nc(-c4ccc(Cl)cc4)n(C[C@H](O)C(F)(F)F)c3=O)nn2-c2ncccc2C(F)(F)F)CCN1 [Example 49, hydrochloride]
Please give the order of these molecules when sorted by ratio IC50 hV2/hV1a, largest value leading. Rank the items, then write their labels in that order.
C, E, D, A, B

// data source = patent US11230540B2
